study_target: GRIP2_4, Q9C0E4
Sequence (Q9C0E4 446-548): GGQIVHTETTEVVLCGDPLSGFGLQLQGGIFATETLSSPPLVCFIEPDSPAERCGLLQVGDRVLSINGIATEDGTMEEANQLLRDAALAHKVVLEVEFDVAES
assay_remarks: holdup assay
Set-up: key: below the threshold = too weak to quantify, mostly under pKd 3.1 to 4
condition_details: plain residues with an end cap or a label only (N-terminal biotin on a linker: ado-ado)

{"binder": "NNMAFETTHF [SLC5A12, Q1EHB4]", "pKd": "below the threshold"}
{"binder": "YAEKRMLTEV [KCNA6, P17658]", "pKd": "below the threshold"}
{"binder": "KPDKQEEFYA [SDC3, O75056]", "pKd": "below the threshold"}
{"binder": "SQDPKKPSRV [CBY2, Q8NA61]", "pKd": "below the threshold"}
